molecular target: thrombin (Homo sapiens, UniProt P00734)
Label key: 1 means IC50 under 60 µM; 0 means IC50 of 60 µM or more.

Solved cases (3 shown):
>>> category_label("CN1CCC(Oc2ccc3c(ccc(=O)n3Cc3ccc4ccc(C(=N)N)cc4c3)c2)CC1")
0
>>> category_label("CC(=N)N1CCC(Oc2ccc3c(ccc(=O)n3Cc3ccccc3-c3ccc(C(=N)N)cc3)c2)CC1")
1
>>> category_label("CCn1c(Cn2c(=O)ccc3cc(OC4CCN(C(C)=N)CC4)ccc32)cc2ccc(C(=N)NN)cc21")
1

Below: the item to evaluate.
q: Please state whether IC50 is below 60 µM for CC(=N)N1CCC(Oc2ccc3c(ccc(=O)n3Cc3cccc(-c4cccc(C(=N)N)c4)c3)c2)CC1
a: 1

Values from patent US6777413B2
